Readings of chromatographic logP for the listed compounds
test: logP determination via HPLC retention times (calibration with unbranched alkan-2-ones); assay type: physicochemical; conditions: HPLC on reversed-phase C 18 columns, EEC Directive 79/831 Annex V.A8; acidic aqueous mobile phase / acetonitrile, linear gradient 10% to 95% acetonitrile

In [3]: df
Out[3]:
                               entry_smiles          readout_type  assay_result
0  Cc1ccc(-c2c(C)nnc(Cl)c2-c2c(F)cccc2F)nc1C  chromatographic logP          2.88
1      Cc1nnc(Cl)c(-c2c(F)cccc2F)c1-c1cccs1  chromatographic logP          3.12

Input line: Recorded chromatographic logP for Cc1nnc(Cl)c(-c2c(F)cccc2Cl)c1-c1cccs1 , please?
Output line: 3.33
